Tested on: HCC-827
Test details: relative viability (nuclei count vs DMSO), 5 days (fraction); higher = more cells survive
Settings: first compound 2 µM
Measured relative viability, listed per entry for reference.
Experimental readout: relative viability

>>> recorded_measurement("Cc1csc(=NC2CCCCC2)n1/N=C/c1ccc(O)c(O)c1O [MIM1] + Cc1nc(NC(=O)N2CCC[C@H]2C(N)=O)sc1-c1ccnc(C(C)(C)C(F)(F)F)c1 [Alpelisib] (partner 2 µM)")
0.913
>>> recorded_measurement("Cc1csc(=NC2CCCCC2)n1/N=C/c1ccc(O)c(O)c1O [MIM1] + O=C(c1cc(Cc2n[nH]c(=O)c3ccccc23)ccc1F)N1CCN(C(=O)C2CC2)CC1 [Olaparib] (partner 8 µM)")
0.639
>>> recorded_measurement("CN1CCN(CCOc2cc(OC3CCOCC3)c3c(Nc4c(Cl)ccc5c4OCO5)ncnc3c2)CC1 [Saracatinib] + Cc1nc(NC(=O)N2CCC[C@H]2C(N)=O)sc1-c1ccnc(C(C)(C)C(F)(F)F)c1 [Alpelisib] (partner 2 µM)")
0.157
>>> recorded_measurement("Cc1csc(=NC2CCCCC2)n1/N=C/c1ccc(O)c(O)c1O [MIM1] + CC(C)C[C@H](NC(=O)[C@H](Cc1ccccc1)NC(=O)c1cnccn1)B(O)O [Bortezomib] (partner 0.002 µM)")
1.07
>>> recorded_measurement("CN1CCN(CCOc2cc(OC3CCOCC3)c3c(Nc4c(Cl)ccc5c4OCO5)ncnc3c2)CC1 [Saracatinib] + CC(=O)c1c(C)c2cnc(Nc3ccc(N4CCNCC4)cn3)nc2n(C2CCCC2)c1=O [Palbociclib] (partner 0.5 µM)")
0.167

====

Measured relative viability, listed per entry for reference.
System: NCI-H3122
Test details: relative viability (nuclei count vs DMSO), 5 days (fraction); higher = more cells survive
Settings: first compound 8 µM
Experimental readout: relative viability

>>> recorded_measurement("Nc1cccc2c1CN(C1CCC(=O)NC1=O)C2=O (stereo not drawn) [Lenalidomide] + Nc1ncn([C@H]2C[C@H](O)[C@@H](CO)O2)c(=O)n1 [Decitabine] (partner 2 µM)")
0.386
>>> recorded_measurement("Nc1cccc2c1CN(C1CCC(=O)NC1=O)C2=O (stereo not drawn) [Lenalidomide] + N=C(N)NC(=N)NCCc1ccccc1 [Phenformin] (partner 250 µM)")
0.457
>>> recorded_measurement("Nc1cccc2c1CN(C1CCC(=O)NC1=O)C2=O (stereo not drawn) [Lenalidomide] + CC(C)C[C@H](NC(=O)[C@H](Cc1ccccc1)NC(=O)c1cnccn1)B(O)O [Bortezomib] (partner 0.002 µM)")
1.13

====

Measured relative viability, listed per entry for reference.
Tested on: PC-14
Test details: relative viability (nuclei count vs DMSO), 5 days (fraction); higher = more cells survive
Settings: first compound 2.53 µM
Experimental readout: relative viability

>>> recorded_measurement("Nc1cccc2c1CN(C1CCC(=O)NC1=O)C2=O (stereo not given) [Lenalidomide] + O=C(c1cc(Cc2n[nH]c(=O)c3ccccc23)ccc1F)N1CCN(C(=O)C2CC2)CC1 [Olaparib] (partner 8 µM)")
0.374
>>> recorded_measurement("Nc1cccc2c1CN(C1CCC(=O)NC1=O)C2=O (stereo not given) [Lenalidomide] + CC(C)C[C@H](NC(=O)[C@H](Cc1ccccc1)NC(=O)c1cnccn1)B(O)O [Bortezomib] (partner 0.002 µM)")
0.905
>>> recorded_measurement("Nc1cccc2c1CN(C1CCC(=O)NC1=O)C2=O (stereo not given) [Lenalidomide] + N=C(N)NC(=N)NCCc1ccccc1 [Phenformin] (partner 250 µM)")
0.606
>>> recorded_measurement("Nc1cccc2c1CN(C1CCC(=O)NC1=O)C2=O (stereo not given) [Lenalidomide] + NC(=O)Nc1cc(-c2cccc(F)c2)sc1C(=O)N[C@H]1CCCNC1 [AZD7762] (partner 0.2 µM)")
0.386
>>> recorded_measurement("Nc1cccc2c1CN(C1CCC(=O)NC1=O)C2=O (stereo not given) [Lenalidomide] + CC1(C)CCC(c2ccc(Cl)cc2)=C(CN2CCN(c3ccc(C(=O)NS(=O)(=O)c4ccc(N[C@H](CCN5CCOCC5)CSc5ccccc5)c(S(=O)(=O)C(F)(F)F)c4)cc3)CC2)C1 [Navitoclax] (partner 0.5 µM)")
1.08
